target: TRPV1 channels (Homo sapiens); experiment: Blocking of TRPV1 channel activation by capsaicin; assay type: cell-based; conditions: capsaicin 100 nM; FIG. 1A; read-out: IC50 against capsaicin
Sequence (Q8NER1 whole entry): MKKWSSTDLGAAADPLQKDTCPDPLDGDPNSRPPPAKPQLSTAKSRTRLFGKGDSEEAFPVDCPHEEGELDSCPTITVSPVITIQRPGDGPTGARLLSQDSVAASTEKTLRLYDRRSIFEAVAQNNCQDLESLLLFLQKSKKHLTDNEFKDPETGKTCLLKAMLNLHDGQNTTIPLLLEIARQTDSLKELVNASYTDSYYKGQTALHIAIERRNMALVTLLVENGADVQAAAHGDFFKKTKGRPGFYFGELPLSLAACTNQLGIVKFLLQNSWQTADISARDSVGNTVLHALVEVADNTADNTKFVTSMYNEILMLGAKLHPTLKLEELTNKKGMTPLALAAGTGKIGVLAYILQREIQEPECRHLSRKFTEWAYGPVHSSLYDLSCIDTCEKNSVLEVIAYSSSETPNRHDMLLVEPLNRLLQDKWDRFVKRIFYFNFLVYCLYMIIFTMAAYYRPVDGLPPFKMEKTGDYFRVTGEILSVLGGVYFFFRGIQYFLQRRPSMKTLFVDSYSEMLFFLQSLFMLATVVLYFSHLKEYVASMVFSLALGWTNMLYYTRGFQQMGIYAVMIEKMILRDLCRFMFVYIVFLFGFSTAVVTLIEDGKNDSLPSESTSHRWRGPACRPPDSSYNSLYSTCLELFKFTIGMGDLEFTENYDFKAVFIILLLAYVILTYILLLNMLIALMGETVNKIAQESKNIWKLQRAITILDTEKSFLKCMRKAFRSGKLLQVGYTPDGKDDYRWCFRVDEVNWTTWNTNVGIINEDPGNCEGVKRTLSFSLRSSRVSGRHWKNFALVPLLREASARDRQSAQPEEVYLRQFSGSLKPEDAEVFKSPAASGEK
recorded_endpoint: pIC50
For clarity, pIC50 is expressed as the negative log10 of concentration in mol/L.

**Query** Given CCCCCC=CCC=CCC=CCC=CCCCC(=O)NCCc1c[nH]c2ccc(O)cc12 [AA-5-HT, N-arachidonoyl-serotonin] , state its recorded pIC50.
**Result** 6.89
